meta.source: patent US12624044B2

Molecular target: SMARCA2 (Homo sapiens)
Sequence (P51531 whole entry): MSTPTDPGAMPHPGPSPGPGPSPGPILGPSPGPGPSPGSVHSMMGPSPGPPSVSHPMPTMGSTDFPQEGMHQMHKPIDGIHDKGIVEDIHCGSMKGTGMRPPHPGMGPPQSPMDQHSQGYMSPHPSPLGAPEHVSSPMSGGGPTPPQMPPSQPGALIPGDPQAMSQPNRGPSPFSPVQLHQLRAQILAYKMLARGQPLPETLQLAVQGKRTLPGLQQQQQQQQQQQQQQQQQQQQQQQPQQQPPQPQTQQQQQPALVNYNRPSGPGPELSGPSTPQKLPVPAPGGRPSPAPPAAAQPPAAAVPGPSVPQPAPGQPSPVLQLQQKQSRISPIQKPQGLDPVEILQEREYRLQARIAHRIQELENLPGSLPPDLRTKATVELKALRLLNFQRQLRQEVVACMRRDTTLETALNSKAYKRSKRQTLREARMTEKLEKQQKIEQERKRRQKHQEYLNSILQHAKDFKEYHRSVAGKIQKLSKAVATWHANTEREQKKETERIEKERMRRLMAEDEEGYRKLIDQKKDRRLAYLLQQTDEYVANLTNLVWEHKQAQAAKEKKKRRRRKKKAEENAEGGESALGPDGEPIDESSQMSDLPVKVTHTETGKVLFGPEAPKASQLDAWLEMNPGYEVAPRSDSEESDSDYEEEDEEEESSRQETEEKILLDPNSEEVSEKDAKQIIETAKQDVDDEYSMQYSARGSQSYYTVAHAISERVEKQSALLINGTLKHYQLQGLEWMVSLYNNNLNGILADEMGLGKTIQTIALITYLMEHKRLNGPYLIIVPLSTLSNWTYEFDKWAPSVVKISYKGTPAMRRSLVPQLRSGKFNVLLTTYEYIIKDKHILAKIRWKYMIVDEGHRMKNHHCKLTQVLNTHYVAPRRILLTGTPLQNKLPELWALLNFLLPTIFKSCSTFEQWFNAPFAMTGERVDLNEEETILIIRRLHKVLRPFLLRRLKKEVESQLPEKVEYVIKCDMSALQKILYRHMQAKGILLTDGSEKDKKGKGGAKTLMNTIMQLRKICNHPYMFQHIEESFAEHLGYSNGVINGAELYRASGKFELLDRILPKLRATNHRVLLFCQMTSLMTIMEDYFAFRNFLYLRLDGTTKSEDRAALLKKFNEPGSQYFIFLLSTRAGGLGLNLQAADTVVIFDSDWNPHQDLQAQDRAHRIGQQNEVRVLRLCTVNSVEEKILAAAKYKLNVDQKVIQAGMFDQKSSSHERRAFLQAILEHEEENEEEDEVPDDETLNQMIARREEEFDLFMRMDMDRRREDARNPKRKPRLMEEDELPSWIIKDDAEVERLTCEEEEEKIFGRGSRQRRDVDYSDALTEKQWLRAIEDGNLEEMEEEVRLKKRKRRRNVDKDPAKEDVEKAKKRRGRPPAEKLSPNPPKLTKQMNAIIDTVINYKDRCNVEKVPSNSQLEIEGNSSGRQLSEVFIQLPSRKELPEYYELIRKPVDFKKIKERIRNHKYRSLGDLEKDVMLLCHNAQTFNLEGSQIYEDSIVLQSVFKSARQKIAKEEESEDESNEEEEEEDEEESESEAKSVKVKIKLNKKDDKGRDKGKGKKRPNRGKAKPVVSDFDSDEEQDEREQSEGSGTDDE
Test: SMARCA2 Western blot MV4-11 degradation
Type: cell-based
Conditions: MV4-11 cells, 24 h, read-out: SMARCA2 WB MV411 degradation 24 h: Average external-Abs DC50
Assay endpoint: DC50

* Cc1ncsc1-c1ccc(CNC(=O)[C@@H]2C[C@@H](O)CN2C(=O)[C@@H](NC(=O)CN2CCN([C@H]3CC[C@H](c4cnc(N5C6CCC5CN(c5cc(-c7ccccc7O)nnc5N)C6)nc4)CC3)CC2)C(C)(C)C)cc1 (single isomer, unassigned) [I-446] | < 100 nM
* Cc1ncsc1-c1ccc(CNC(=O)[C@@H]2C[C@@H](O)CN2C(=O)[C@@H](NC(=O)[C@H]2CC[C@H](c3cnc(N4C5CCC4CN(c4cc(-c6ccccc6O)nnc4N)C5)nc3C)CC2)C(C)(C)C)cc1 [I-412] | < 100 nM
* Cc1ncsc1-c1ccc(CNC(=O)[C@@H]2C[C@@H](O)CN2C(=O)[C@@H](NC(=O)[C@H]2CC[C@H](CN(C)Cc3cnc(N4C5CCC4CN(c4cc(-c6ccccc6O)nnc4N)C5)nc3)CC2)C(C)(C)C)cc1 [I-486] | < 100 nM
* Cc1ncsc1-c1ccc(CNC(=O)[C@@H]2C[C@@H](O)CN2C(=O)[C@@H](NC(=O)C2CCC(c3cnc(N4C5CCC4CN(c4cc(-c6ccccc6O)nnc4N)C5)nc3)CC2C)C(C)(C)C)cc1 (stereo partly shown) [I-444] | < 100 nM
* Cc1ncsc1-c1ccc(CNC(=O)[C@@H]2C[C@@H](O)CN2C(=O)[C@@H](NC(=O)[C@H]2CC[C@H](c3cnc(N4C5CCC4CN(c4cc(-c6ccccc6O)nnc4N)C5)nc3)CC2)C(C)(C)C)c(OC(F)(F)F)c1 [I-405] | < 100 nM
* Cn1c(=O)n(C2CCC(=O)NC2=O)c2cccc(C3CCC(N4CCC(n5cc(-c6cc(-c7ccccc7O)nnc6N)cn5)CC4)CC3)c21 (stereo not shown) [I-321] | < 100 nM
* Cc1ncsc1-c1ccc(CNC(=O)[C@@H]2C[C@@H](O)CN2C(=O)[C@@H](NC(=O)[C@H]2CC[C@H](c3cnc(N4C5CCC4CN(c4cc(-c6ccccc6O)nnc4N)C5)nc3)CC2)C(C)(C)C)cc1 [I-337] | < 100 nM

----------
List of Dmax values.
Target: SMARCA4 (Homo sapiens)
Construct: SMARCA2 and SMARCA4 protein degradation in MV4-11 cells; endogenous in cells; host or cells: MV4-11
Sequence (P51532 whole entry): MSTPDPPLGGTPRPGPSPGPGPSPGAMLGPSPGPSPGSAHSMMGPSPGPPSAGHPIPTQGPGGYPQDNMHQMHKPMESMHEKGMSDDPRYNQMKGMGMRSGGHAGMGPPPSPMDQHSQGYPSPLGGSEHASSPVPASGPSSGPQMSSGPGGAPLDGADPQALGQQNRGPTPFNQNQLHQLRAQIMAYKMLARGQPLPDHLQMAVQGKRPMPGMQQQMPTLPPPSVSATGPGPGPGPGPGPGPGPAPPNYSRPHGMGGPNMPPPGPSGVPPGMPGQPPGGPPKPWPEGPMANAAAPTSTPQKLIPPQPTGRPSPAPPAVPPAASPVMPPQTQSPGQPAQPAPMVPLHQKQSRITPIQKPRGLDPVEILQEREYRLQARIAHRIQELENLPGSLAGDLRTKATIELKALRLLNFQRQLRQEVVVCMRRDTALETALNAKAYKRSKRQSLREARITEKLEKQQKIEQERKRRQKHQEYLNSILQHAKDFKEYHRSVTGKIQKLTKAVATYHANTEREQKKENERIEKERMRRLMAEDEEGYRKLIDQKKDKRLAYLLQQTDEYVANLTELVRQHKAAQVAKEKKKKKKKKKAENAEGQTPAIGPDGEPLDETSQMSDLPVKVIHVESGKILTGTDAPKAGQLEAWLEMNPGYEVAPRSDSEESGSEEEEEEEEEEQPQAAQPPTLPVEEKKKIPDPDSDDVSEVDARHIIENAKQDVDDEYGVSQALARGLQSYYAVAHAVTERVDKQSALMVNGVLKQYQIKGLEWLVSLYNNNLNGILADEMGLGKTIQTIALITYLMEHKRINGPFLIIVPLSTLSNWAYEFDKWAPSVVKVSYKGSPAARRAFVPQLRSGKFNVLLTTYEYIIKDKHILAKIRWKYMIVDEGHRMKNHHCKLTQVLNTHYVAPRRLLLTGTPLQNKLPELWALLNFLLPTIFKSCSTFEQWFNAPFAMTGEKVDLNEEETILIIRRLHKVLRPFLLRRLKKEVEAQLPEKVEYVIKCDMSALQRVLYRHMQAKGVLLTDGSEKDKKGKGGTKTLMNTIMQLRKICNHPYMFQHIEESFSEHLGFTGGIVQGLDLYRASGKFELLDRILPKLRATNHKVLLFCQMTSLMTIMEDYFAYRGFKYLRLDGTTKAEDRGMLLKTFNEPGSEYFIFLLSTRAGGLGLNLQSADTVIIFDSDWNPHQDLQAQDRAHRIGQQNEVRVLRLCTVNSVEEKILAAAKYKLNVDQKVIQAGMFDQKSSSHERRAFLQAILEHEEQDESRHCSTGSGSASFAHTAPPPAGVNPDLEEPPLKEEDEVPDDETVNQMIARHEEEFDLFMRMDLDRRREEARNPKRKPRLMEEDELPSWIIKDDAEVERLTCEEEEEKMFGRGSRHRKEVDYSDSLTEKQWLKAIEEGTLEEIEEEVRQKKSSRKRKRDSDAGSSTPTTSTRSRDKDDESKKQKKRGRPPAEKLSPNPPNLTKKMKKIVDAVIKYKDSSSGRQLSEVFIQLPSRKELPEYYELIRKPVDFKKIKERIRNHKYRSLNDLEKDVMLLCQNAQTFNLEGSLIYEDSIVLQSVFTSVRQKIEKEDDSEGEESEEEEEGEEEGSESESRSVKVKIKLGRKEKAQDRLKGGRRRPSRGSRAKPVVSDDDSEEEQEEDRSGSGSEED
Assay: SMARCA4 Western blot MV4-11 degradation
Format: cell-based
Details: MV4-11, MV4-11 cells, 24 h, read-out: SMARCA4 WB MV411 degradation 24 h: Average Dmax %
Assay endpoint: Dmax

- Cc1ncsc1-c1ccc(CNC(=O)[C@@H]2C[C@@H](O)CN2C(=O)[C@@H](NC(=O)CN2CCN([C@H]3CC[C@H](c4cnc(N5C6CCC5CN(c5cc(-c7ccccc7O)nnc5N)C6)nc4)CC3)CC2)C(C)(C)C)cc1 (single isomer, unassigned): > 90%
- Cc1ncsc1-c1ccc(CNC(=O)[C@@H]2C[C@@H](O)CN2C(=O)[C@@H](NC(=O)[C@H]2CC[C@H](CN3CCC(c4cnc(N5C6CCC5CN(c5cc(-c7ccccc7O)nnc5N)C6)nc4)CC3)CC2)C(C)(C)C)cc1: 50 to 70%
- Cc1ncsc1-c1ccc(CNC(=O)[C@@H]2C[C@@H](O)CN2C(=O)[C@@H](NC(=O)CN2CCC[C@@H](Cn3cc(-c4cc(-c5ccccc5O)nnc4N)cn3)C2)C(C)(C)C)cc1: 50 to 70%
- Cc1ncsc1-c1ccc(CNC(=O)[C@@H]2C[C@@H](O)CN2C(=O)[C@@H](NC(=O)CCCCCC2CCC(N3CCC(Cn4cc(-c5cc(-c6ccccc6O)nnc5N)cn4)CC3)CC2)C(C)(C)C)cc1 (some centres unmarked): 70 to 90%
- Cc1cc(-c2scnc2C)ccc1CNC(=O)[C@@H]1C[C@@H](O)CN1C(=O)[C@@H](NC(=O)CN1CCC(c2cnc(N3C4CCC3CN(c3cc(-c5ccccc5O)nnc3N)C4)nc2)CC1)C(C)(C)C: > 90%

----------
List of Dmax values.
Molecular target: SMARCA2 (Homo sapiens)
Assay: MSD SMARCA2 degradation in A549 cell line
Assay type: cell-based
Settings: A549, A549 cells, 24 h
Assay endpoint: Dmax

• Cc1ncsc1-c1ccc(CNC(=O)[C@@H]2C[C@@H](O)CN2C(=O)[C@@H](NC(=O)c2ccc(C#CCCCN3CCC(Cn4cc(-c5cc(-c6ccccc6O)nnc5N)cn4)CC3)cc2)C(C)(C)C)cc1 = > 90%
• Cc1ncsc1-c1ccc(CNC(=O)[C@@H]2C[C@@H](O)CN2C(=O)[C@@H](NC(=O)[C@H]2CC3(C[C@H](CN4CCC(n5cc(-c6cc(-c7ccccc7O)nnc6N)cn5)CC4)C3)C2)C(C)(C)C)cc1 (stereo partly shown) = > 90%
• Cc1ncsc1-c1ccc(CNC(=O)[C@@H]2C[C@@H](O)CN2C(=O)[C@@H](NC(=O)CCCN(C)Cc2ccc(N3CCN(c4cc(-c5ccccc5O)nnc4N)CC3)cc2)C(C)(C)C)cc1 = < 50%
• Cc1ncsc1-c1ccc(CNC(=O)[C@@H]2C[C@@H](O)CN2C(=O)[C@@H](NC(=O)[C@H]2CC[C@H](c3nccc(N4C5CCC4CN(c4cc(-c6ccccc6O)nnc4N)C5)n3)CC2)C(C)(C)C)cc1 = > 90%
• Cc1ncsc1-c1ccc(CNC(=O)[C@@H]2C[C@@H](O)CN2C(=O)[C@@H](NC(=O)[C@H]2CC=C(c3cnc(N4C5CCC4CN(c4cc(-c6ccccc6O)nnc4N)C5)nc3)CC2)C(C)(C)C)cc1 = > 90%
• Cc1ncsc1-c1ccc(CNC(=O)[C@@H]2C[C@@H](O)CN2C(=O)[C@@H](NC(=O)c2ccc(-c3ccc(CN4CCC(Cn5cc(-c6cc(-c7ccccc7O)nnc6N)cn5)CC4)cc3)cc2)C(C)(C)C)cc1 = > 90%
• Cc1ncsc1-c1ccc(CNC(=O)[C@@H]2C[C@@H](O)CN2C(=O)[C@@H](NC(=O)CCCCCCCNCc2ccc(C#Cc3cc(NC(=O)Nc4cc(F)ncc4CO)ccn3)cc2)C(C)(C)C)cc1 = < 50%
• Cc1ncsc1-c1ccc(CNC(=O)[C@@H]2C[C@@H](O)CN2C(=O)[C@@H](NC(=O)[C@H]2CC[C@H](c3ccc(CN4CCC(Cn5cc(-c6cc(-c7ccccc7O)nnc6N)cn5)CC4)cc3)CC2)C(C)(C)C)cc1 = > 90%
• Cc1ncsc1-c1ccc(CNC(=O)[C@@H]2C[C@@H](O)CN2C(=O)[C@@H](NC(=O)[C@H]2CC[C@H](Cc3ccc(-c4cnc(N5C6CCC5CN(c5cc(-c7ccccc7O)nnc5N)C6)nc4)cc3)CC2)C(C)(C)C)cc1 = > 90%
• Cc1ncsc1-c1ccc(CNC(=O)[C@@H]2C[C@@H](O)CN2C(=O)[C@@H](NC(=O)[C@H]2CC[C@H](Cc3cnc(N4C5CCC4CN(c4cc(-c6ccccc6O)nnc4N)C5)nc3)CC2)C(C)(C)C)cc1 = > 90%
• Cc1ncsc1-c1ccc(CNC(=O)[C@@H]2C[C@@H](O)CN2C(=O)[C@@H](NC(=O)CN2C3CCC2CC(c2cnc(N4C5CCC4CN(c4cc(-c6ccccc6O)nnc4N)C5)nc2)C3)C(C)(C)C)cc1 (stereo partly shown) = > 90%
• Cc1ncsc1-c1ccc(CNC(=O)[C@@H]2C[C@@H](O)CN2C(=O)[C@@H](NC(=O)CCCCCC2CCC(N3CCC(Cn4cc(-c5cc(-c6ccccc6O)nnc5N)cn4)CC3)CC2)C(C)(C)C)cc1 (stereo partly shown) = > 90%
• CC(C)(C)[C@H](NC(=O)C1(F)CC1)C(=O)N1C[C@H](O)C[C@H]1C(=O)NCc1ccc(-c2scnc2-c2ccc3cn[nH]c3c2)cc1OCCc1ccc(CN2CCN(c3cc(-c4ccccc4O)nnc3N)CC2)cc1 = > 90%
• Nc1nnc(-c2ccccc2O)cc1-c1cnn(C2CCN(C3CCC(CNc4cccc5c4C(=O)N(C4CCC(=O)NC4=O)C5=O)CC3)CC2)c1 (stereo not shown) = 70 to 90%
• CN(CCCOCCCc1cccc2c1n(C)c(=O)n2C1CCC(=O)NC1=O)Cc1cccc(C#Cc2cc(NC(=O)Nc3cc(F)ncc3CO)ccn2)c1 (stereo not shown) = < 50%
• Cc1ncsc1-c1ccc(CNC(=O)[C@@H]2C[C@@H](O)CN2C(=O)[C@@H](NC(=O)CC2CCC(c3cnc(N4C5CCC4CN(c4cc(-c6ccccc6O)nnc4N)C5)nc3)CC2)C(C)(C)C)cc1 (stereo partly shown) = > 90%
• Cc1ncsc1-c1ccc(CNC(=O)[C@@H]2C[C@@H](O)CN2C(=O)[C@@H](NC(=O)Cc2ccc(-c3cnc(N4C5CCC4CN(c4cc(-c6ccccc6O)nnc4N)C5)nc3)cc2)C(C)(C)C)cc1 = > 90%
• Cc1ncsc1-c1ccc(CNC(=O)[C@@H]2C[C@@H](O)CN2C(=O)[C@@H](NC(=O)[C@H]2CC[C@@H](Cc3cnc(N4C5CCC4CN(c4cc(-c6ccccc6O)nnc4N)C5)nc3)CC2)C(C)(C)C)cc1 = > 90%
• Cc1ncsc1-c1ccc(CNC(=O)[C@@H]2C[C@@H](O)CN2C(=O)[C@@H](NC(=O)[C@H]2CC[C@H](CCCCCN3CCC(Cn4cc(-c5cc(-c6ccccc6O)nnc5N)cn4)CC3)CC2)C(C)(C)C)cc1 = > 90%
